Papp B→A: recorded values
assay method text: in vitro
experimental setup: dog, MDCK, PappBA, initial concentration 2 μM
Unit ×10⁻⁶ cm/s implied. Number only.

| compound | endpoint result |
| --- | --- |
| COc1ccc2c(c1)[nH]c1c(C)nccc12 [Harmine] | 7.32 |

Prompt line: Give the reported Papp B→A for this compound. COc1ccc2c3c([nH]c2c1)C(C)=NCC3 [Harmaline]
Response line: 21

###

Tested on: OATPs
assay method text: in vitro
experimental setup: human, Caco-2, ER, Caco-2, 2 μM, + ES 0.05 mM (OATPs)
readout: efflux ratio
Provide a numeric answer; units are not to be included.

Prompt line: Give the reported efflux ratio for this compound. COc1ccc2c3c([nH]c2c1)C(C)=NCC3 [Harmaline]
Response line: 1.12

###

Tested on: MRP2
assay method text: in vitro
experimental setup: human, Caco-2, PappAB
readout: Papp A→B
Report as: number unit

Prompt line: Give the reported Papp A→B for this compound. `COc1ccc2c(c1)[nH]c1c(C)nccc12`
Response line: 29.9 ×10⁻⁶ cm/s

###

Tested on: OATs
assay method text: Bidirectional transport in MDCK cell monolayers with selective transporter inhibitors or substrates
Assay type: in vitro ADME, canine
experimental setup: dog, with cimetidine 0.05 mM (50 μM), + Cimetidine 0.05 mM (OATs)
Papp A→B at 120 min, 2 μM: recorded values

| entry smiles | endpoint result |
| --- | --- |
| COc1ccc2c3c([nH]c2c1)C(C)=NCC3 | 19.2 ×10⁻⁶ cm/s |

Prompt line: Give the reported Papp A→B at 120 min, 2 μM for this compound. `COc1ccc2c(c1)[nH]c1c(C)nccc12`
Response line: 4.74 ×10⁻⁶ cm/s

###

assay method text: Cytotoxicity CCK-8 assay in MDCK cells
Format: cell-based, canine
experimental setup: dog, MDCK cells, up to 25 μM, 12 h incubation, read-out: Cell viability
readout: viability at 12 h

Prompt line: Give the reported viability at 12 h for this molecule. COc1ccc2c3c([nH]c2c1)C(C)=NCC3 [Harmaline]
Response line: > 90%

###

assay method text: Pharmacokinetics in rats after intravenous and intragastric administration
experimental setup: both, Sprague-Dawley, rat, in vivo, iv, 3.3 mg/kg
readout: Vd (L/kg)
Unit L/kg implied. Number only.

| entry smiles | Vd / L/kg |
| --- | --- |
| COc1ccc2c(c1)[nH]c1c(C)nccc12 | 10.4 |

We next turn to a different compound, shown below.
Prompt line: Give the reported Vd for this compound. `COc1ccc2c3c([nH]c2c1)C(C)=NCC3`
Response line: 94.1

###

assay method text: in vitro
experimental setup: human, Caco-2, pH 7.4, ER, Caco-2, 2 μM, Control (pH 7.4, 37°C, without EDTA)
Description: Caco-2, MDCK and MDCK-MRP2 cells were donated by Prof. Yan Xie and Yueming Ma from Shanghai University of Traditional Chinese Medicine. […] The apparent permeability coefficients (Papp) and ER were calculated as Equations (2) and (3): […] where dQ/dt is the steady-state flux, A is the membrane surface area, and C0 is the initial drug concentration in the donor compartment. PappBA is the Papp-value measured in BL to AP direction and PappAB is the Papp-value measured in AP to BL direction. […]
readout: efflux ratio

Prompt line: Give the reported efflux ratio for this molecule. COc1ccc2c3c([nH]c2c1)C(C)=NCC3 [Harmaline]
Response line: 0.95
